experiment: Plasma pharmacokinetics after oral TAK-285 (LC-MS/MS, noncompartmental); type: in vivo, human (Japanese patients); conditions: human, plasma, oral, 300 mg, multiple dosing day 28; 300 mg b.i.d., repeated administration cohort; mean (s.d.)
recorded-metric: Cmax (ng/mL)
Response body: numeric value in ng/mL, unit text excluded.

Tell me its Cmax given CC(C)(O)CC(=O)NCCn1ccc2ncnc(Nc3ccc(Oc4cccc(C(F)(F)F)c4)c(Cl)c3)c21 [TAK-285] as the entry.
2810

* * *

assay: Plasma pharmacokinetics after oral TAK-285 (LC-MS/MS, noncompartmental); assay type: in vivo, human (Japanese patients); conditions: human, plasma, oral, 300 mg b.i.d., multiple dosing day 21; 300 mg b.i.d., dose escalation cohort; median (range)
recorded-metric: Tmax (h)
Note: unit h is implicit; provide only the numeric part.

Output measured Tmax for this item: CC(C)(O)CC(=O)NCCn1ccc2ncnc(Nc3ccc(Oc4cccc(C(F)(F)F)c4)c(Cl)c3)c21
2

* * *

experiment: Plasma pharmacokinetics after oral TAK-285 (LC-MS/MS, noncompartmental); assay type: in vivo, human (Japanese patients); conditions: human, plasma, oral, 300 mg, single dosing; 300 mg b.i.d., dose escalation cohort; median (range)
recorded-metric: Tmax (h)
Numeric answer only, unit h assumed.

Please look at this compound and report its Tmax: CC(C)(O)CC(=O)NCCn1ccc2ncnc(Nc3ccc(Oc4cccc(C(F)(F)F)c4)c(Cl)c3)c21
2

* * *

assay: Plasma pharmacokinetics after oral TAK-285 (LC-MS/MS, noncompartmental); type: in vivo, human (Japanese patients); conditions: human, plasma, oral, 200 mg, single dosing; 200 mg b.i.d., dose escalation cohort; median (range)
recorded-metric: Tmax (h)
# value in h; strip the unit string

Name the recorded Tmax of the item CC(C)(O)CC(=O)NCCn1ccc2ncnc(Nc3ccc(Oc4cccc(C(F)(F)F)c4)c(Cl)c3)c21 in your answer.
2.48

* * *

experiment: Plasma pharmacokinetics after oral TAK-285 (LC-MS/MS, noncompartmental); format: in vivo, human (Japanese patients); settings: human, plasma, oral, 100 mg b.i.d., multiple dosing day 21; 100 mg b.i.d., dose escalation cohort; median (range)
recorded-metric: Tmax

State its Tmax: CC(C)(O)CC(=O)NCCn1ccc2ncnc(Nc3ccc(Oc4cccc(C(F)(F)F)c4)c(Cl)c3)c21
2 h

* * *

assay: Plasma pharmacokinetics after oral TAK-285 (LC-MS/MS, noncompartmental); assay type: in vivo, human (Japanese patients); conditions: human, plasma, oral, 50 mg, single dosing; 50 mg q.d., dose escalation cohort; mean (s.d.)
recorded-metric: Cmax (ng/mL)
Express the result in ng/mL but write the number alone.

Consider the molecule CC(C)(O)CC(=O)NCCn1ccc2ncnc(Nc3ccc(Oc4cccc(C(F)(F)F)c4)c(Cl)c3)c21 [TAK-285] and give its recorded Cmax.
214

* * *

test: Plasma pharmacokinetics after oral TAK-285 (LC-MS/MS, noncompartmental); format: in vivo, human (Japanese patients); details: human, plasma, oral, 300 mg, multiple dosing day 28; 300 mg b.i.d., repeated administration cohort; mean (s.d.); read-out: t1/2 (converted)
recorded-metric: half-life

// fetch half-life given entry CC(C)(O)CC(=O)NCCn1ccc2ncnc(Nc3ccc(Oc4cccc(C(F)(F)F)c4)c(Cl)c3)c21
11.1 h

* * *

experiment: Plasma pharmacokinetics after oral TAK-285 (LC-MS/MS, noncompartmental); assay type: in vivo, human (Japanese patients); settings: human, plasma, oral, 100 mg, single dosing; 100 mg b.i.d., dose escalation cohort; mean (s.d.)
recorded-metric: Cmax (ng/mL)
Report the value in ng/mL with no unit label.

Given CC(C)(O)CC(=O)NCCn1ccc2ncnc(Nc3ccc(Oc4cccc(C(F)(F)F)c4)c(Cl)c3)c21 , respond with its Cmax.
379
